System: KM12 colon
Experiment: NCI tumour cell line growth inhibition, 48 h
Endpoint Label: TGI

Some entries whose results are on file:
>>> result_value("Cc1c2ccncc2cc2c1sc1ccncc12")
"17.1 µM"
>>> result_value("COc1ccc(/C=C2/C(C)=NN(c3cccc(Cl)c3)/C2=N/c2nc3ccccc3s2)cc1")
"> 100 µM"
>>> result_value("OCC1OC(n2ccc3c2ncn2ncnc32)C(O)C1O (centres undefined)")
"> 100 µM"

Exam item: Give KM12 colon TGI for COc1cc(/C=C/C(=O)c2sc(-n3nc(-c4ccccc4)cc3-c3ccccc3)nc2C)ccc1O
Marked response: > 100 µM

Exam item: Enter reported TGI observed with KM12 colon for CCCCCC(=O)Nc1n[nH]nc1C(N)=O
Marked response: > 100 µM

Exam item: Missing value: TGI, KM12 colon, entry COc1cc2c(cc1OC)-c1ccc3cc4c(cc3c1N(CCN1CCCC1)C2)OCO4 . Fill in?
Marked response: 1.99 µM
